FYI, the data here is from patent US8148371B2.

# assay overview: Metabolic stability on liver S9 of rat
# measurement setup: rat liver S9, test compound 1 μM, 37° C.
So basically, if Residual rate comes in under 3% it's Fulfilled, and if it's 3% or more it's Not fulfilled.

# TODO verify Residual rate < 3% strictly for this compound: CCCCOc1nc(N)c2nc(O)n(Cc3ccc(CC(=O)SC)cc3)c2n1
Not fulfilled

# TODO verify Residual rate < 3% strictly for this compound: CCCCOc1nc(N)c2nc(O)n(Cc3ccc(CCC(=O)OCC)cc3)c2n1
Not fulfilled

# TODO verify Residual rate < 3% strictly for this compound: Nc1nc(SCC(=O)N2CCOCC2)nc2c1nc(O)n2Cc1ccccc1
Not fulfilled

# TODO verify Residual rate < 3% strictly for this compound: CCCCOc1nc(N)c2nc(O)n(Cc3ccc(CC(=O)OC)cc3)c2n1
Fulfilled

# TODO verify Residual rate < 3% strictly for this compound: CCCCOc1nc(N)c2nc(O)n(Cc3ccc(CC(=O)OCCN(C)C)cc3)c2n1.Cl
Not fulfilled

# TODO verify Residual rate < 3% strictly for this compound: CCCCOc1nc(N)c2nc(O)n(Cc3ccc(OCC(=O)OC)cc3)c2n1
Not fulfilled

---

# Tested on: cells of mouse spleen
# assay overview: cells
# Format: cell-based, C3H/HeJ mouse
# measurement setup: Mus musculus, 24 h, read-out: Minimum effective concentration (interferon inducing activity)
property name: minimal effective concentration (µM)
Hi! Could you send only the number? It should be in µM, unit omitted.

Any idea what its minimal effective concentration is? The compound is Nc1nc(SCC(=O)O)nc2c1nc(O)n2Cc1ccccc1 [Comparative example 12, reference compound]
10

Any idea what its minimal effective concentration is? The compound is COC(=O)CNc1nc(N)c2nc(O)n(Cc3ccc(C)nc3)c2n1
0.01

Any idea what its minimal effective concentration is? The compound is Cc1ccc(Cn2c(O)nc3c(N)nc(OCCO)nc32)cn1 [Comparative example 11, reference compound]
0.1

Any idea what its minimal effective concentration is? The compound is CCCCOc1nc(N)c2nc(O)n(Cc3ccc(CC(=O)OC(C)C)cc3)c2n1
0.003

Any idea what its minimal effective concentration is? The compound is CCCCOc1nc(N)c2nc(O)n(Cc3ccc(C(=O)O)o3)c2n1 [Comparative example 3, reference compound]
0.1

Any idea what its minimal effective concentration is? The compound is CCCCOc1nc(N)c2nc(O)n(Cc3cccc(CC(=O)O)c3)c2n1 [Comparative example 5, reference compound]
0.1

---

# assay overview: Metabolic stability on liver S9 of rat
# measurement setup: rat liver S9, test compound 10 μM (*), 37° C.
Marks after values point to notes of the source that are not given here.
Would you kindly list Residual rate for each of these compounds?

Any idea what its Residual rate is? The compound is Nc1nc(SCC(=O)OCc2ccccc2)nc2c1nc(O)n2Cc1ccccc1 [Example 45]
8* %

Any idea what its Residual rate is? The compound is CC(=O)OCCNc1nc(N)c2nc(O)n(Cc3ccc(C)nc3)c2n1 [Example 33]
2* %

Any idea what its Residual rate is? The compound is CCOC(=O)CSc1nc(N)c2nc(O)n(Cc3ccccc3)c2n1 [Example 41]
2* %

Any idea what its Residual rate is? The compound is COC(=O)OCCNc1nc(N)c2nc(O)n(Cc3ccc(C)nc3)c2n1 [Example 34]
1* %

Any idea what its Residual rate is? The compound is CCOC(=O)CCSc1nc(N)c2nc(O)n(Cc3ccccc3)c2n1 [Example 55]
4* %
